Origin of values: PubChem BioAssay (NCI)

test system: RXF 393 renal; experiment: NCI-60 one-dose screen, 48 h (100 = growth as untreated, 0 = no growth, -100 = all killed); conditions: 10 µM unless noted
The panel holds about 83,000 compounds, 20% with a hit somewhere; the sample as a whole holds those more often.
// thresholds for growth classes: range 1 (below 10%), range 2 (10% to below 80%), range 3 (80% or more)

| Smiles input | Study system | Group |
| --- | --- | --- |
| O=C1/C(=C/c2ccc(F)cc2)C=C(c2ccccc2)N1CCc1ccccc1 | RXF 393 renal | range 2 |
| Cc1ccc(C(=NN=C(N)N)c2ccc(C)cc2)cc1 | RXF 393 renal | range 1 |
| Cc1cc(NCc2cc(Nc3ccnc4cc(Cl)ccc34)ccc2F)nc(N2CCOCC2)n1 | RXF 393 renal | range 1 |
| O=c1[nH]nc(-c2ccccc2)c2c(-c3ccccc3)onc12 | RXF 393 renal | range 2 |
| O=C1/C(=C\c2cccnc2)SC(=S)N1CCc1ccc(O)cc1 | RXF 393 renal | range 2 |
| CCN(CCNc1ccc(C)c2sc3ccccc3c(=O)c12)CC(C)(C)O | RXF 393 renal | range 2 |
| COc1ccc2cc(-c3cc(OC)c(OC)c(OC)c3)c(=O)oc2c1 | RXF 393 renal | range 3 |
| C=CCOC1=CC(=O)c2ccccc2C1=O | RXF 393 renal | range 3 |

* * *

tested on: SK-MEL-5 melanoma; assay: NCI-60 one-dose screen, 48 h; settings: 10 µM unless noted
About 83,000 compounds went through this panel and 20% of them were active in at least one assay; those are over-represented in the sample as a whole. The source made the active and inactive calls. How the source made its calls: active means growth percent below 10; inactive means the rest.
Outcome codes: y (active), n (inactive)

| Compound | Group |
| --- | --- |
| COc1ccc2[nH]c(O)c(/C=c3/cc4c(c(-c5cc(OC)c(OC)c(OC)c5)n3)=Nc3ccccc3-4)c2c1 | n |
| COc1cc(/C=C/C(=O)N2CCN(C(=O)c3cc(OC)c(OC)c(OC)c3)CC2)ccc1OCCCN1C(=O)c2cccc3cccc(c23)C1=O | n |
| O=C1/C(=C/c2ccccc2)CCc2nc3ccccc3c(/C=C/c3ccc(Cl)cc3)c21 | n |
| Oc1c(CN2CCCC2)cc(COCc2ccc(Br)cc2)c2cccnc12 | y |
| Cc1ccc(C(=O)CSc2nc(-c3ccc(Br)cc3)c(C#N)c(=O)[nH]2)cc1 | n |
| COc1cccc2c1C(=O)c1c(O)c3c(c(O)c1C2=O)CC(O)(/C(C)=N/NC(=O)CCCCC(=O)N/N=C(\C)C1(O)Cc2c(O)c4c(c(O)c2C(OC2CC(N)C(O)C(C)O2)C1)C(=O)c1c(OC)cccc1C4=O)CC3OC1CC(N)C(O)C(C)O1 (stereo unspecified) | y |
| CNC(=O)CCN1CCN(CC/C=C2\c3ccccc3Sc3ccc(Cl)cc32)CC1 | n |
| COc1cc(-c2nc(N3CCN(C)CC3)c3ccccc3n2)cc(OC)c1OC | n |
| N/C(=N/N=C/c1ccccc1)N/N=C\c1ccccc1 | n |
| COC(=O)[C@]12CC[C@@H](C)[C@H](C)[C@@H]1C1=CC[C@@H]3[C@@]4(C)C(C=O)=C[C@@](C)(CO)[C@@H]4[C@H](O)C[C@@]3(C)[C@]1(C)CC2 | y |
| O=C(COc1ccc(/C=C2\Oc3ccccc3C2=O)cc1)Nc1nc2c(s1)CCCC2 | n |
| N#CC1=C(NC=O)Oc2c(ccc3ccccc23)C1c1ccccc1 (stereo unspecified) | y |
| O=C(CSc1nccc(Nc2ccc(S(=O)(=O)Nc3nccs3)cc2)n1)c1ccc(F)cc1 | n |
| O=C1/C(=C\c2c[nH]c3ccccc23)c2ccccc2N1c1c(Cl)cccc1Cl | y |
| c1c[nH]c(CNC2CCCCC2)c1 | n |
| COc1cc2ncn3c(=O)c4c5c(sc4nc3c2cc1OC)CCCC5 | n |
| CC(=O)N1N=C(c2ccc(Nc3nc(Nc4ccc(F)cc4)nc(Nc4ccc(F)cc4)n3)cc2)CC1c1cccc([N+](=O)[O-])c1 (stereo unspecified) | n |
| CC(=O)N1C(=S)NC(=O)C1Cn1c(-c2ccccc2)nc2ccccc21 (stereo unspecified) | n |
| COc1ccc(-c2nc3sccn3c2-c2cc(-c3cc(OC)c(OC)c(OC)c3)on2)cc1 | n |
| Cc1cc(NCCCCNc2ccnc3cc(Cl)ccc23)nc(Nc2ccc(C(=O)N3CCCC3)cc2)n1 | y |
| Cc1ccc(Cl)cc1NC(=O)c1cc2ccccc2cc1O | y |
| COc1cccc(-c2nn(-c3ccccc3)cc2-c2ccnc(NCCCNC(=O)c3ccccc3)c2)c1 | y |
| O=C(NCCNc1cc(-c2cn(-c3ccccc3)nc2-c2cccc(O)c2)ccn1)Nc1ccccc1 | n |
| COc1ccc(-c2csc(C3=C(O)CN(C(C)C)C3=N)n2)cc1OC | n |
| Cc1cc(NCc2cc(Nc3ccnc4cc(Cl)ccc34)ccc2F)nc(N2CCSCC2)n1 | y |
| COc1ccc2c(c1)C(=O)/C(=C/c1ccc(OCC(=O)Nc3nccs3)cc1)O2 | n |
| O=C(c1ccc(Nc2nccc(NCCCCNc3ccnc4cc(Cl)ccc34)n2)cc1)N1CCCCC1 | y |
| O=C(Nc1ccccc1-c1nc2ccccc2c(=O)[nH]1)c1cc2ccccc2[nH]1 | n |
| O=c1ssc(Cl)c1-c1ccccc1 | n |
| CCN(CCNc1ccc(C)c2sc3ccccc3c(=O)c12)CC(C)(C)O | n |
| CC(C)(C)c1ccc(/C=C/C(=O)Nc2ccc(O)cc2)cc1 | n |
